- TARGET SYSTEM: mouse ATB^0,+ (Mus musculus)
- Sequence (Q9JMA9 1-638): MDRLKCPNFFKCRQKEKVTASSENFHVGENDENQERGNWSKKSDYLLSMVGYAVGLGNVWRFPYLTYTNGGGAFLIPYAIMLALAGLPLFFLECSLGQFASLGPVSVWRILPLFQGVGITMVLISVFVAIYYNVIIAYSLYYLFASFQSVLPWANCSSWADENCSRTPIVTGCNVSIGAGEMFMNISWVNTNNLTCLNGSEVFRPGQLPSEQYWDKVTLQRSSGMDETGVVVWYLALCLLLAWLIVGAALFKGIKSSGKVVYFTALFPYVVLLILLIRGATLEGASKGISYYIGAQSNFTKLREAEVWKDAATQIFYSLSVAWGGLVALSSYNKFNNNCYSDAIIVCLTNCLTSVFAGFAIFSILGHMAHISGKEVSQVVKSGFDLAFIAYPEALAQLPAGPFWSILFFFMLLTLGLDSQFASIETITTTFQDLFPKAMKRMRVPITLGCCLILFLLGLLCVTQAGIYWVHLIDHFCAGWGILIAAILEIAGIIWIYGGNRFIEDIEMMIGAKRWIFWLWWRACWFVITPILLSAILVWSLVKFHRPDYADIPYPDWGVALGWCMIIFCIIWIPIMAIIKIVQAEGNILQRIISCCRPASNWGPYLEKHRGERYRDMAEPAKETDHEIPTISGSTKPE
- COND: compound 1 mM; NaCl medium pH 7.5; voltage clamp
List of Current in X. laevis oocytes values.
READOUT KIND: Current in X. laevis oocytes

# STRUCTURE NOTATION, RESULT
data = [
    ("NC(=NCCC[C@H](N)C(=O)OCc1ccccc1)N[N+](=O)[O-]", "16 ± 2 nA"),
    ("NC(=S)NCCC[C@H](N)C(=O)O", "497 ± 104 nA"),
    ("NC(=O)NCCC[C@H](N)C(=O)O", "498 ± 114 nA"),
    ("N=C(N)NOCC[C@H](N)C(=O)O", "269 ± 73 nA"),
    ("COC(=O)[C@@H](N)CCCNC(=N)N[N+](=O)[O-]", "11 ± 2 nA"),
    ("CN(C)C(N)=NCCC[C@H](N)C(=O)O", "85 ± 15 nA"),
    ("N=C(NCCC[C@H](N)C(=O)O)N[N+](=O)[O-]", "200 ± 92 nA"),
    ("N=C(N)NCCC[C@H](N)C(=O)O", "382 ± 57 nA"),
    ("NCCCC[C@H](N)C(=O)O", "545 ± 95 nA"),
    ("CNC(=N)NCCC[C@H](N)C(=O)O", "411 ± 76 nA"),
    ("CCNC(=N)NCCC[C@H](N)C(=O)O", "138 ± 16 nA"),
    ("NCCC[C@H](N)C(=O)O", "131 ± 27 nA"),
    ("CC(=N)NCCC[C@H](N)C(=O)O", "71 ± 16 nA"),
    ("CC(=N)NCCCC[C@H](N)C(=O)O", "89 ± 18 nA"),
]

====

- TARGET SYSTEM: mouse ATB^0,+ (Mus musculus, UniProt Q9JMA9)
- COND: L-amino acid 1 mM; NaCl pH 7.5
READOUT KIND: Current in X. laevis oocytes (nA), L-isomer

# STRUCTURE NOTATION, MEASURE UNIT, QUANTITATIVE RESULT
rows = [
    ("C[C@@H](O)[C@H](N)C(=O)O", "nA", 233),
    ("N[C@@H](CO)C(=O)O", "nA", 470),
    ("NC(=O)CC[C@H](N)C(=O)O", "nA", 453),
    ("C[C@H](N)C(=O)O", "nA", 650),
    ("N[C@@H](Cc1c[nH]cn1)C(=O)O", "nA", 410),
    ("N=C(N)NCCC[C@H](N)C(=O)O", "nA", 339),
    ("CC[C@H](C)[C@H](N)C(=O)O", "nA", 117),
    ("NCCCC[C@H](N)C(=O)O", "nA", 321),
]
